Target: Melatonin receptor (Ovis aries)
Experiment: Monophasic inhibitory concentration against melatonin receptor was measured on ovine pars tuberalis membrane.
readoutType: IC50 (M)

- COc1ccc2cccc(CCN(C)C(C)=O)c2c1: 2.58e-08
- COc1ccc2cccc(CCNC(=O)Cc3ccccc3)c2c1: 9.79e-06
- CC(=O)NCCc1cccc2ccc(O)cc12: 2.43e-07
- CCCC(=O)NCCc1cccc2ccc(OC)cc12: 3.45e-12

A: COc1ccc2cccc(CCNC(=O)CN3CCOCC3)c2c1
B: COc1ccc2cccc(CCNC(=O)CN3CCN(Cc4ccc(OC)c(OC)c4OC)CC3)c2c1
C: CCCCC(=O)NCCc1coc2ccc(OC)cc12
D: COC(=O)C(CNC(C)=O)c1cccc2ccc(OC)cc12 (stereo not given)
Query block: Hi! Can you put these in order of IC50, lowest number first? Returns: the labels arranged in the requested order.
Result block: C, D, A, B

Reference for the values: ChEMBL document CHEMBL1127346
